Test system: MV-4-11 cells
Assay: Inhibition of proliferation of myeloid monocytic leukemia cells MV-4-11 (cell viability assay, 96 h)
Format: cell-based, human
Details: read-out: inhibitory activity (IC50) against tumor cells proliferation, MV-4-11
pIC50: −log10 of the molar value.
measurement.type: pIC50

Example entries begin here.
> print(dat)
                               smiles.entry  measurement.type  measured.result
1  O=C1CCN(N2Cc3cc(CN4CCN(c5ccc(F)cc5)CC4)ccc3C2=O)C(=O)N1             pIC50     6.00 to 6.30
2  O=C1CCN(N2Cc3cc(CN4CCN(c5cccc(Br)c5)CC4)ccc3C2=O)C(=O)N1             pIC50     6.52 to 7.00
3  O=C1CCN(N2Cc3cc(CN4CCN(c5cc(Cl)ccc5Cl)CC4)ccc3C2=O)C(=O)N1             pIC50     6.52 to 7.00
4  O=C1CCN(N2Cc3cc(CN4CCN(c5ccccc5Br)CC4)ccc3C2=O)C(=O)N1             pIC50     6.00 to 6.30

Entry "O=C1CCN(N2Cc3cc(CN4CCC(c5cccc(F)c5Cl)CC4)ccc3C2=O)C(=O)N1" has what pIC50?
6.30 to 6.52

So what's the measured pIC50 for this one? "O=C1CCN(N2Cc3cc(CN4CCN(c5cccc(F)c5F)CC4)ccc3C2=O)C(=O)N1"
6.30 to 6.52

What measured pIC50 goes with "O=C1CCN(N2Cc3cc(CN4CCC(c5cccc(C(F)(F)F)c5)CC4)ccc3C2=O)C(=O)N1" ?
6.00 to 6.30

Reported pIC50, compound "O=C1CCN(N2Cc3cc(CN4CCC(c5cccc(Cl)c5Cl)CC4)ccc3C2=O)C(=O)N1" : ____
6.52 to 7.00

Requested field: pIC50. Item: "O=C1CCN(N2Cc3cc(CN4CCC(c5ccccc5)CC4)ccc3C2=O)C(=O)N1"
6.00 to 6.30
